# measured_on: M1 muscarinic receptor (Homo sapiens, UniProt P11229)
# Construct: expressed in transfected cells; host or cells: CHO (M1-CHO)
# Sequence (P11229 whole entry): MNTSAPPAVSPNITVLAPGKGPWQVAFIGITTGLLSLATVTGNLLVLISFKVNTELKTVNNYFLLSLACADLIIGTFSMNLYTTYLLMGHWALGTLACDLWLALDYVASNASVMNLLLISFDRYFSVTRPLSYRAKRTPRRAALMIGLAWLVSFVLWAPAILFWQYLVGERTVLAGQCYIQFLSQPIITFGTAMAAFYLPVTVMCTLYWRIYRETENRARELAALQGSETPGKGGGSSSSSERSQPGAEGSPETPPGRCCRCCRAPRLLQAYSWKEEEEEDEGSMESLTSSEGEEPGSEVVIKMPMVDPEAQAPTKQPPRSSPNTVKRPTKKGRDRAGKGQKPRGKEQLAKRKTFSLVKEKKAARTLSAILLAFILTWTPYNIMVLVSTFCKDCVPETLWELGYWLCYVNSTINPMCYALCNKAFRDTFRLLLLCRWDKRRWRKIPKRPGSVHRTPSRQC
# assay_explanation: Functional mobilization of intracellular calcium (FLIPR) in M1-CHO cells
# Assay type: cell-based
# condition_label: CHO cells expressing M1, calcium mobilization; Table 5
measurement_label: EC50

# count of solved cases: 5
# compound, EC50
measured = [
    ("CN(C)C(=O)N1CC2(CCN(C3CCN(c4ncccn4)CC3)CC2)c2cc(F)ccc21", "2000 to 10000 nM"),
    ("CN(C)C(=O)N1CC2(CCN(C3CCN(c4cnccn4)CC3)CC2)c2cc(F)ccc21", "< 2000 nM"),
    ("CN(C)C(=O)N1CC2(CCN(C3CCN(c4nccs4)CC3)CC2)c2cc(F)ccc21", "< 2000 nM"),
    ("CC(=O)N1CC2(CCN(C3CCC4(CC3)CC(C)=NO4)CC2)c2cc(F)ccc21 (centres unmarked)", "2000 to 10000 nM"),
    ("CN(C)C(=O)N1CC2(CCN(C[C@H]3CCN(c4nccs4)C3)CC2)c2cc(F)ccc21", "2000 to 10000 nM"),
]

Value lookup for EC50; key = COc1ccc(N2CCC(N3CCC4(CC3)CN(C(=O)N(C)C)c3ccc(F)cc34)CC2)cc1 2000 to 10000 nM

Value lookup for EC50; key = CN(C)C(=O)N1CC2(CCN(C3CCN(c4ccccc4F)CC3)CC2)c2cc(F)ccc21 2000 to 10000 nM

Value lookup for EC50; key = COc1cccc(N2CCC(N3CCC4(CC3)CN(C(=O)N(C)C)c3ccc(F)cc34)CC2)c1 2000 to 10000 nM

----------
# measured_on: M1 muscarinic receptor (Homo sapiens)
# Construct: expressed in transfected cells; host or cells: CHO (M1-CHO)
# assay_explanation: Functional mobilization of intracellular calcium (FLIPR) in M1-CHO cells
# Type: cell-based
# condition_label: M1 receptor, calcium mobilization; read-out: M1 Efficacy
Examples of molecules with documented Emax follow.

# count of solved cases: 3
# smiles_repr, measured_on, Emax
records = [
    ("COCCOC(=O)N1CCC(CN2CCC3(CC2)CN(C(C)=O)c2ccc(F)cc23)CC1", "M1 muscarinic receptor (Homo sapiens)", "65 to 85%"),
    ("CCOC(=O)N1CCC(N2CCC3(CC2)CN(C(=O)N(C)c2ccccc2)c2ccc(F)cc23)CC1", "M1 muscarinic receptor (Homo sapiens)", "65 to 85%"),
    ("CC(=O)N1CC2(CCN(CC3CCN(C(=O)OC(C)C)CC3)CC2)c2cc(F)ccc21", "M1 muscarinic receptor (Homo sapiens)", "65 to 85%"),
]

Value lookup for Emax; key = C1=C[C@H]2C[C@H]1C[C@@H]2CN1CCC2(CCc3ccccc32)CC1 < 65%

----------
Examples of compounds with documented pEC50 follow.
# measured_on: M1 muscarinic receptor (Homo sapiens, UniProt P11229)
# Construct: expressed in transfected cells; host or cells: CHO (M1-CHO)
# assay_explanation: Functional mobilization of intracellular calcium (FLIPR) in M1-CHO cells
# Format: cell-based
# condition_label: M1-CHO cells, calcium mobilization (FLIPR)
pEC50: −log10 of the molar value.

# compound, pEC50
measured = [
    ("Cc1cc(C(=O)N2CC3(CCN(C4CC5CCC(C4)N5C(=O)O[C@H]4CCOC4)CC3)c3cc(F)ccc32)nn1C (some centres unmarked) [compound 411]", "> 7.00"),
    ("CC(=O)N1CC2(CCN(C3CCN(C(=O)O[C@H]4CCOC4)CC3)CC2)c2cc(C)ccc21 [compound 398]", "6.00 to 7.00"),
    ("CCOC(=O)N1C2CCC1CC(N1CCC3(CC1)CN(C(C)=O)c1ccc(Cl)cc13)C2 (centres unmarked) [compound 417]", "6.00 to 7.00"),
    ("CCOC(=O)N1CCC(N2CCC3(CC2)CN(C(C)=O)c2ccc(C4=CCCC4)cc23)CC1 [compound 426]", "< 6.00"),
    ("CCOC(=O)N1CCC(CN2CCC3(CCc4ccccc43)CC2)CC1 [compound 414]", "< 6.00"),
]

Value lookup for pEC50; key = CC(=O)N1CC2(CCN(C3CCCN(C(=O)OC(C)C)CC3)CC2)c2cc(F)ccc21 (centres unmarked) [compound 395] > 7.00

Value lookup for pEC50; key = C/C=C\c1ccc2c(c1)C1(CCN(C3CCN(C(=O)OCC)CC3)CC1)CN2C(C)=O [compound 407] 6.00 to 7.00

Value lookup for pEC50; key = CS(=O)(=O)N1CC2(CCN(C3CC4CCC(C3)N4C(=O)O[C@H]3CCOC3)CC2)c2cc(F)ccc21 (some centres unmarked) [compound 388] > 7.00
